Molecular target: proMMP9(20-445;ΔFnII) (SEQ ID NO:6) (Homo sapiens, UniProt P14780, DEL216-390)
Construct: start methionine (N)
Sequence (P14780 with tags, fused parts or gaps DEL216-390): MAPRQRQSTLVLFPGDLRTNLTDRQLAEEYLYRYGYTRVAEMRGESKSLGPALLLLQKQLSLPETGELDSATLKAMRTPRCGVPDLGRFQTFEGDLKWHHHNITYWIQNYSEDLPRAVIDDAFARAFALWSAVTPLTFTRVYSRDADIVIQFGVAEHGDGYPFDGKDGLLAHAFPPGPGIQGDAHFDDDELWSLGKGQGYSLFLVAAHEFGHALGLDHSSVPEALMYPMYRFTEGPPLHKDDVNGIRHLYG
Assay: ThermoFluor binding assay with proMMP9(20-445;ΔFnII)
Description: The ThermoFluor® (TF) assay is a 384-well plate-based binding assay that measures thermal stability of proteins (Biomol Screen 2001, 6, 429-40; Biochemistry 2005, 44, 5258-66). The experiments were carried out using instruments available from Johnson & Johnson Pharmaceutical Research & Development, LLC. TF dye used in all experiments was […] (1,8-ANS) (Invitrogen: A-47). […]
Measured log10(Kd) of individual entries
Give log10 of Kd, with Kd taken in nM.

Please report the recorded log10(Kd) for `Cn1cnc2cc(-c3csc(Nc4cc(S(N)(=O)=O)ccc4OC(F)(F)F)n3)ccc21` .
2.88

Same read-out for `CC(C)Oc1ccc(S(N)(=O)=O)cc1Nc1nc(-c2ccc3c(c2)nc(CN(C)CCN(C)C)n3C)cs1` ?
1.72

Same read-out for `CC(C)Oc1ccc(S(N)(=O)=O)cc1Nc1nc(-c2ccc3c(c2)ncn3C)cs1` ?
2.41

Same read-out for `Cc1ccn2c(-c3csc(Nc4cc(C(N)=O)ccc4OC(C)C)n3)c(C)nc2c1` ?
3.18

Same read-out for `Cc1nc2cc(-c3csc(Nc4cc(S(N)(=O)=O)ccc4OC(C)C)n3)ccc2[nH]1` ?
2.15

Same read-out for `CC(C)Oc1ccc(S(N)(=O)=O)cc1Nc1nc(-c2ccc3[nH]c(=O)[nH]c3c2)cs1` ?
1.91

Same read-out for `CC(C)Oc1ccc(S(N)(=O)=O)cc1Nc1nc(-c2ccc3c(cnn3C)c2)cs1` ?
2.04

Same read-out for `CC(C)Oc1ccc(S(N)(=O)=O)cc1Nc1nc(-c2ccc3c(c2)nc(CO)n3C)cs1` ?
2.00

Same read-out for `CCCn1cnc2cc(-c3csc(Nc4cc(S(N)(=O)=O)ccc4OC(C)C)n3)ccc21` ?
2.32

Same read-out for `Cc1c(-c2csc(Nc3cc(C(N)=O)ccc3OC(C)C)n2)sc2ccccc12` ?
3.08

---

Measured pKd of individual entries
Biological target: proMMP9(20-445;ΔFnII) (SEQ ID NO:6) (Homo sapiens, UniProt P14780, DEL216-390)
Construct: start methionine (N)
Sequence (P14780 with tags, fused parts or gaps DEL216-390): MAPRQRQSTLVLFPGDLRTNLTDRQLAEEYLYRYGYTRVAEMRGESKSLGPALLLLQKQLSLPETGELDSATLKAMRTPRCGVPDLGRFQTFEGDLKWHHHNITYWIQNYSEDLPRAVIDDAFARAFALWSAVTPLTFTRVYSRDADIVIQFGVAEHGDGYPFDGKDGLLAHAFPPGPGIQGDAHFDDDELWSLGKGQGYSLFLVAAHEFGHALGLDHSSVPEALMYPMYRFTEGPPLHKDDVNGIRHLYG
Experiment: ThermoFluor binding assay with proMMP9(20-445;ΔFnII)
Method: The ThermoFluor® (TF) assay is a 384-well plate-based binding assay that measures thermal stability of proteins (Biomol Screen 2001, 6, 429-40; Biochemistry 2005, 44, 5258-66). The experiments were carried out using instruments available from Johnson & Johnson Pharmaceutical Research & Development, LLC. TF dye used in all experiments was […] (1,8-ANS) (Invitrogen: A-47). […]
To interpret pKd, take it as minus log10 of a concentration measured in moles per litre.

Answered examples (2):
INSERT INTO results (compound, result_number) VALUES
  ('CCn1cnc2ccc(-c3csc(Nc4cc(S(N)(=O)=O)ccc4OC(C)C)n3)cc21 [Example 27]', 6.92),
  ('CC(C)Oc1ccc(C(N)=O)cc1Nc1nc(-c2ccc3c(cnn3C)c2)cs1 [Example 14]', 7.17);

Next, consider the following compound.
Please report the recorded pKd for CC(C)Oc1ccc(S(N)(=O)=O)cc1Nc1nc(-c2ccc3c(c2)nc(CN2CCN(C)CC2)n3C)cs1 [Example 30] .
7.06

---

molecular target: full-length proMMP9(1-707) (SEQ ID NO:1), activation by catalytic MMP3 (Homo sapiens, UniProt P14780, R574P); construct: made in house; host or cells: HEK293 (transient, secreted); assay: proMMP9/MMP3 P126 Activation Assay; format: biochemical
pIC50: −log10 of the molar value.
Measured pIC50 of individual entries

Answered examples (2):
INSERT INTO measurements (smiles_text, result) VALUES
  ('CC(C)Cc1ccc(C(N)=O)cc1Nc1nc(-c2ccc3c(c2)ncn3C)cs1', '~5.52'),
  ('CC(C)Oc1ccc(C(N)=O)cc1Nc1nc(-c2nc3ccccc3n2C)cs1', '~5.15');

Please report the recorded pIC50 for `Cn1ncc2cc(-c3csc(Nc4cc(C(N)=O)ccc4OC(F)(F)F)n3)ccc21` .
~5.70

Entry source: patent US20120129872A1
